Reported pIC50 values for the following compounds.
- ASSAYED TARGET: AXL (human catalytic domain) (Homo sapiens)
- Construct: purchased Upstate Ltd. 14-512
- Sequence (P30530 473-894): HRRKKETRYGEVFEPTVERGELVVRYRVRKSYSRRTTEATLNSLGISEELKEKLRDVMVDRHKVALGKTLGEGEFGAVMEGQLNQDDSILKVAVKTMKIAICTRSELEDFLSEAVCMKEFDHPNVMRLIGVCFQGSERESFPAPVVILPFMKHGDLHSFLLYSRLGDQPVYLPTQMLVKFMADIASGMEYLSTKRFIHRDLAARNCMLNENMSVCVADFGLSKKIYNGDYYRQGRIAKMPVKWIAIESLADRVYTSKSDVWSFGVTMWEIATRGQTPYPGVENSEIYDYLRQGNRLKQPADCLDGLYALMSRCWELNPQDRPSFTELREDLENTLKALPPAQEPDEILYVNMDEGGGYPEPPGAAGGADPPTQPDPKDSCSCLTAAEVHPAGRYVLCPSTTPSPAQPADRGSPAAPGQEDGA
- MEASUREMENT PROTOCOL: AXL (human catalytic domain) Enzyme Activity Assay (IMAP fluorescence polarisation)
- Assay type: biochemical
- EXPERIMENTAL PARAMETERS: further data set (WW-001 through WW-169, XX-001 through XX-469, YY-001 through YY-016, ZZ-001 through ZZ-003); 150 μM ATP
pIC50: −log10 of the molar value.

COMPOUND	pIC50
COc1ccc(-c2cccc(-c3cccc4nc(Nc5ccc(OCCN6CCCC6)cc5)nn34)c2)cc1 [XX-468]	5.00 to 6.00

**Q:** Which value of pIC50 has been reported for CS(=O)(=O)n1cc(-c2cccc3nc(Nc4ccc(OCCN5CCCC5)cc4)nn23)cn1 [XX-276] in the records?
**A:** 6.00 to 7.00

**Q:** Which value of pIC50 has been reported for CCOc1ccc(-c2cccc3nc(NC(=O)C4CC4)nn23)cc1F [WW-101] in the records?
**A:** 5.00 to 6.00

**Q:** Which value of pIC50 has been reported for CCN(CC)CCOc1cc(Nc2nc3cccc(-c4ccc(OC)c(F)c4)n3n2)ccn1 [XX-359] in the records?
**A:** ≥ 7.00

**Q:** Which value of pIC50 has been reported for F[C@H]1CCN(CCOc2ccc(Nc3nc4cccc(-c5ccc6c(c5)OCCO6)n4n3)cc2)C1 [XX-157] in the records?
**A:** 6.00 to 7.00

**Q:** Which value of pIC50 has been reported for O=C(Cn1cc(-c2cccc3nc(Nc4ccc(OCCN5CCCC5)cc4)nn23)cn1)NCCO [XX-436] in the records?
**A:** 6.00 to 7.00

**Q:** Which value of pIC50 has been reported for c1cncc(CNc2cccc(-c3cccc4nc(Nc5ccc(OCCN6CCCC6)cc5)nn34)c2)c1 [XX-442] in the records?
**A:** 6.00 to 7.00

**Q:** Which value of pIC50 has been reported for NCCSc1ccc(Nc2nc3cccc(-c4ccc5c(c4)OCCO5)n3n2)cc1 [XX-108] in the records?
**A:** ≥ 7.00

All figures here come from patent US8431596B2.
